- system name: hA1AR (Homo sapiens)
- Construct: expressed in transfected cells; host or cells: CHO
- Sequence (P30542 whole entry): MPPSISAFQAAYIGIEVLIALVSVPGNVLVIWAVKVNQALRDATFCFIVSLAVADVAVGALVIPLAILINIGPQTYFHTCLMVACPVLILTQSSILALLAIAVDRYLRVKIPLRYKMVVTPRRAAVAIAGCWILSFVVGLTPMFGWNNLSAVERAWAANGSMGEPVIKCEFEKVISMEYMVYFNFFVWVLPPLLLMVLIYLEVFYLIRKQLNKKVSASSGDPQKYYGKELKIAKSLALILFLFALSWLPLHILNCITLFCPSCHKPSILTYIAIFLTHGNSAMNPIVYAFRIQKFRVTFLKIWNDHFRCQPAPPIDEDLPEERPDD
- assay info: Binding at hA1AR, CHO membranes (Example 7)
- run parameters: read-out: % inhibition hA1

compound	unit descriptor	inhibition at 10 µM
CNC(=O)[C@@]12C[C@@H]1[C@@H](n1cnc3c(NCc4cccc(Cl)c4)nc(C#Cc4ccccc4Cl)nc31)[C@H](O)[C@@H]2O [Compound 329]	%	20
CNC(=O)[C@@]12C[C@@H]1[C@@H](n1cnc3c(NCc4cccc(Cl)c4)nc(C#Cc4ccccc4)nc31)[C@H](O)[C@@H]2O [Compound 327]	%	18
CNC(=O)[C@@]12C[C@@H]1[C@@H](n1cnc3c(NC)nc(C#Cc4ccc(F)c(F)c4)nc31)[C@H](O)[C@@H]2O [Compound 319]	%	6

###

- system name: mouse A3 adenosine receptor (Mus musculus, UniProt Q61618)
- Sequence (Q61618 1-319): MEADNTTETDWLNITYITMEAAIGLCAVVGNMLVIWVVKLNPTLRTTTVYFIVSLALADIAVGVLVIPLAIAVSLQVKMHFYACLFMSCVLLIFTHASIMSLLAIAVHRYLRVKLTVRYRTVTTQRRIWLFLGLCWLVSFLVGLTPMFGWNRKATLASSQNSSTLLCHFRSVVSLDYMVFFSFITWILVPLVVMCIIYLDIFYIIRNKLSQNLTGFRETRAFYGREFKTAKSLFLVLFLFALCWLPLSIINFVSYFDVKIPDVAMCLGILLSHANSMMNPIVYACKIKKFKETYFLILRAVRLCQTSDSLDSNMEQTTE
- assay info: Competition radioligand binding, mouse A3 AR, HEK293 membranes (Table 1)
- run parameters: mouse
assay endpoint: Selectivity A1/A3

compound	system name	number
CNC(=O)C12CC1C(n1cnc3c(NCc4cccc(C#CCCCC(=O)NCCN)c4)nc(Cl)nc31)C(O)C2O (stereo not drawn)	mouse A3 adenosine receptor (Mus musculus, UniProt Q61618)	13
CNC(=O)C12CC1C(n1cnc3c(NCc4cccc(Cl)c4)nc(C#C[Si](C)(C)C)nc31)C(O)C2O (stereo not drawn)	mouse A3 adenosine receptor (Mus musculus, UniProt Q61618)	35.6
CNC(=O)C12CC1C(n1cnc3c(NCc4cccc(Cl)c4)nc(SC)nc31)C(O)C2O (stereo not drawn)	mouse A3 adenosine receptor (Mus musculus, UniProt Q61618)	83

###

- system name: human A3 adenosine receptor (Homo sapiens, UniProt P0DMS8)
- Sequence (P0DMS8 whole entry): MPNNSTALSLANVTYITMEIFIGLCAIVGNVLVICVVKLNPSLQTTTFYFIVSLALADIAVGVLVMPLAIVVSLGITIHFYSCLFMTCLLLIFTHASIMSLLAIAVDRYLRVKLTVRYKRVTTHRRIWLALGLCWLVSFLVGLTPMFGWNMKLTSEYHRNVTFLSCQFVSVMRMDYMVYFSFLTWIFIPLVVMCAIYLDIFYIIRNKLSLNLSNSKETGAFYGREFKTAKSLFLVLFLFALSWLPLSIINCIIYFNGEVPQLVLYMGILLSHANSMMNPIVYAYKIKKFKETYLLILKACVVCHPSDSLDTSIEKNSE
- assay info: [125I]I-AB-MECA binding, human A3 AR, CHO membranes (Table 1)
- run parameters: human

compound	Selectivity A1/A3
CNC(=O)C12CC1C(n1cnc3c(NCc4cccc(Cl)c4)nc(C#CCCC(=O)NCCCCN)nc31)C(O)C2O (stereo not drawn)	up to 1900
CNC(=O)C12CC1C(n1cnc3c(NCc4cccc(Cl)c4)nc(C#CCCC(=O)NCCN)nc31)C(O)C2O (stereo not drawn)	up to 1900
CNC(=O)[C@@]12C[C@@H]1[C@@H](n1cnc3c(NCc4cccc(I)c4)ncnc31)[C@H](O)[C@@H]2O	up to 1900
